Data provenance: patent US20100322937A1

- tested_on: T1, D^563H EGFR (full-length human, FLAG tag) on BaF/3 cells (human, UniProt P00533 25-1210)
- T1 construct: whole, on cells
- assay_details: Scatchard, 125I-EGF on BaF/3 cells, Kd2 (low-affinity site)
- Protocol: Ligand binding to cells expressing the wt or mutant EGFR was determined at room temperature in the presence of the internalization inhibitor phenylarsine oxide (PAO) (29) by cold saturation experiments. […] All experimental points were prepared in triplicate. […] Data were analyzed using the “Kell for Windows” RadLig program. ^{(a)}Number of receptors per cell were calculated from the Bₘₐₓ and the number of cells/tube in each ligand binding experiment.
measure_name: Kd (nM)
Answer with a number only, understood to be in nM.

For the binder shown here, Murine EGF, purified from mouse submaxillary glands (ligand, UniProt P01132 977-1029, looked up, iodinated with 125I (Iodogen) as tracer in the Scatchard assays, mature; also called ^125I-EGF) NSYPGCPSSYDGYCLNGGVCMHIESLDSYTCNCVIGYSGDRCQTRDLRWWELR , give the reported Kd.
1.7
